Can you tell me activation for the items I'm about to list?
Molecular target: Neuropeptide Y receptor type 1 (Homo sapiens)
Test: NPY-Y1 receptor potentiators or agonists, primary screen, cell-based (AID 1304);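 also: cells stimulated with NPY at EC10 then isoproterenol at EC100; 0% = low agonist plus stimulus and 100% = saturating agonist plus stimulus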
Settings: NPY-Y1 expressing cells, potentiator/agonist activation; at 3.6 µM; stronger effect = higher value
Hit rate of the full screen: of about 220,000 compounds, about 800 (0.36%) were called active. The sample holds actives, similar compounds and a random draw of the others, so the mix is not that of the screen.
Give bare numbers, in %.

Cc1ccc(C)c(NC(=O)CSc2nc3c(oc4ccccc43)c(=O)n2-c2ccccc2)c1: -11.9
Clc1ccc(C2=CSC3=Nc4cccc5cccc(c45)N23)cc1: -26.6

Below are some molecules; for each one, tell me its activation.
1. COc1ccccc1N(C)S(=O)(=O)c1ccc(Cl)c(C(=O)N2CCC(C(N)=O)CC2)c1
2. CN(C)NC(=O)C(NC(=O)c1ccc(N)cc1)C12CC3CC(CC(C3)C1)C2 (stereo unspecified)
3. Cc1ccc(C(=O)Nc2nnc(-c3cccs3)s2)cc1C
4. CC(=O)c1sc(NC(=O)c2ccc(C)cc2)nc1C

29.7
5.39
19.3
5.15

Below are some molecules; for each one, tell me its activation.
1. Cc1ccc(NC(=S)N2CCCC(c3ccccc3)=N2)cc1
2. Cc1cccc(C)c1OCC(O)CN1CCCCC1 (stereo unspecified)
3. C/C(=N\NC(=O)c1ccc(CSc2nc(C)cc(C)n2)cc1)C1CCCCC1
4. Cc1ccc(OCC(O)CN2CCN(CC(O)COc3ccc(C)cc3Cl)CC2)c(Cl)c1 (stereo unspecified)
5. O=C(CCCN1C(=O)c2ccccc2C1=O)Oc1ccc(Cl)cc1

-12
1.8
1.93
6.61
-9.31

====

Molecular target: Neuropeptide Y receptor type 1 (Homo sapiens)
Assay: NPY-Y1 receptor potentiators or agonists, primary screen, cell-based (AID 1304);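 also: cells stimulated with NPY at EC10 then isoproterenol at EC100; 0% = low agonist plus stimulus and 100% = saturating agonist plus stimulus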
Conditions: NPY-Y1 expressing cells, potentiator/agonist activation; at 3.6 µM; stronger effect = higher value
Among all 220,000 compounds or so, about 800 (0.36%) were called active. Only a selection was taken, and actives are over-represented in it overall.
Assay Readout: activation

OC(COc1cccc2ccccc12)CN1CCN(c2ccccn2)CC1 (configuration not stated): 50.8% (active)
O=c1c(/C=N/O)coc2ccc(Cl)cc12: 19.5% (inactive)
O=C(CN1C(=O)CC(c2ccccc2)S(=O)(=O)c2ccccc21)NC1CCCC1 (configuration not stated): -1.33% (inactive)

Below are some compounds; for each one, tell me its activation.
1. O=S(=O)(c1ccc(F)cc1)N1CC=C(c2ccccc2)CC1
2. O=C(c1cc(-c2ccc(O)cc2)on1)N1CCCc2ccccc21
3. O=C(c1cc(COc2c(F)cccc2F)on1)N1CCSCC1
4. CN(C)Cc1c(O)ccc2occ(C(O)c3ccccc3)c12 (configuration not stated)
5. CCOC(=O)CCCNC(=O)COC(=O)/C=C/c1ccc2c(c1)OCO2

1. -6.53% (inactive)
2. -13.9% (inactive)
3. 3.08% (inactive)
4. 105% (active)
5. -7.21% (inactive)

Below are some compounds; for each one, tell me its activation.
1. CCOC(=O)C1(CC2CCCCO2)CCN(Cc2nc(-c3cccs3)oc2C)CC1 (configuration not stated)
2. CC(=O)c1ccc(-c2nnc(CCC(=O)N(C)Cc3cnc4ccccn34)o2)s1
3. O=C(NCCCNc1ccc([N+](=O)[O-])cc1Cl)c1ccccc1F

["1.86% (inactive)", "10.1% (inactive)", "-0.79% (inactive)"]

Below are some compounds; for each one, tell me its activation.
1. COC(=O)c1ccc(COC(=O)c2cnccn2)cc1
2. O=[N+]([O-])c1cc(Cl)cc(/C=N/NC(=S)Nc2cc(S(=O)(=O)N3CCOCC3)ccc2Cl)c1O
3. C=CCOc1ccc(/C=C2\SC(=S)N(CCC(=O)O)C2=O)cc1
4. COc1ccc2[nH]c3ccc(OC)cc3c2c1
5. CCCc1nc2oc3c(=O)[nH]cnc3c2c2c1COC(C)(C)C2
6. CCOc1ccc(C(=O)NC(=S)Nc2ccc(NC(=O)C(C)C)cc2)cc1[N+](=O)[O-]
7. Cc1cccc(C)c1Nc1c(-c2ccccc2O)nc2ncccn12

1: -11.9% (inactive); 2: 77.5% (active); 3: 6.81% (inactive); 4: 64.7% (active); 5: 8.17% (inactive); 6: -12.8% (inactive); 7: 80.8% (active)

Below are some compounds; for each one, tell me its activation.
1. CC1CCN(C2=NC(=O)/C(=C/c3cn[nH]c3-c3ccccc3)S2)CC1
2. Cc1ccccc1OCC(O)CN1CCN(c2ccccn2)CC1 (configuration not stated)
3. O=C(CC1SCCNC1=O)Nc1ccc(Cl)c(Cl)c1 (configuration not stated)
4. O=S1(=O)C=C(SCCN2CCCC2)c2ccccc21
5. COc1ccccc1C(c1nnnn1C(C)(C)C)N1CCN(Cc2ccccc2)CC1 (configuration not stated)
6. O=C(NCc1ccccc1)C1=C[C@@H](c2ccc(C(F)(F)F)cc2)C[C@@H](OCc2ccc(CO)cc2)O1
7. CCOc1ccc2c(=O)c(-c3ccc4c(c3)OCCCO4)c(C)oc2c1

1: 1.73% (inactive); 2: 29.6% (inactive); 3: 8.97% (inactive); 4: 19% (inactive); 5: -17.5% (inactive); 6: -2.07% (inactive); 7: 2.42% (inactive)
